# key: entry, value: IC50
target: full length active recombinant SYK enzyme (Homo sapiens); construct: full length active recombinant SYK enzyme (Millipore, Calif.); assay: Inhibition of Syk tyrosine phosphorylation activity (LANCE TR-FRET kinase assay)
Quantity name: IC50

INSERT INTO results (smiles_text, result) VALUES
  ('NC(=O)c1cc(F)c(N[C@@H]2CCCC(F)(F)[C@@H]2N)nc1Nc1cccc(-n2nccn2)c1', '100 to 1000 nM'),
  ('Cn1cc2c(Nc3nc(N[C@@H]4CCCC[C@@H]4N)c(F)cc3C(N)=O)cccc2n1', '100 to 1000 nM'),
  ('NC(=O)c1cc(F)c(N[C@@H]2CCCC[C@@H]2N)nc1Nc1cccc(N2CCCC2)c1', '1 to 10 nM'),
  ('Cc1cccc(Nc2nc(N[C@@H]3CCCC(F)(F)[C@@H]3N)c(F)cc2C(N)=O)c1', '10 to 100 nM'),
  ('NC(=O)c1cc(F)c(N[C@@H]2CCCC[C@@H]2N)nc1Nc1cccc(-n2cccn2)c1', '1 to 10 nM');

The origin of these recorded values is patent US8846928B2.
